# Test system: human erythrocytes
# Test: Hemolytic activity
# Type: cell-based
# Cond: 15% suspension in PBS, 1 h, 37 °C, absorbance 540 nm, highest tested concentration 100 µM
Residues, ends and D or L forms follow the SMILES beside them. *: point of attachment. Pentanoyl = CCCCC(=O)*
Property Label: HC, hemolytic concentration at 5% hemolytic activity

Qu. Form field: reported HC, hemolytic concentration at 5% hemolytic activity of CCCCC(=O)N[C@@H](CC(C)C)C(=O)NCC(=O)N[C@@H](CC(C)C)C(=O)N[C@@H](CCCCN)C(=O)N[C@@H](CC(C)C)C(=O)N[C@@H](CC(C)C)C(=O)N[C@@H](Cc1c[nH]c2ccccc12)C(=O)N[C@@H](CO)C(=O)N[C@@H](C)C(=O)N[C@@H](Cc1ccc(O)cc1)C(=O)N[C@@H](CCCCN)C(=O)N[C@@H](Cc1c[nH]cn1)C(=O)N[C@@H](CCCNC(=N)N)C(=O)N[C@@H](CCCCN)C(=O)N[C@H](C(=O)N[C@@H](CC(C)C)C(N)=O)[C@@H](C)O [L-6-C5-Leu] (Pentanoyl-LGLKLLWSAYKHRKTL-NH2)
Ans. > 100 µM
